Values were extracted from paper PMC4139204.

SUBJECT_OF_TEST: RbAp48 (Homo sapiens, UniProt Q09028)
Construct: made in house; host or cells: insect cells
Sequence (Q09028 whole entry): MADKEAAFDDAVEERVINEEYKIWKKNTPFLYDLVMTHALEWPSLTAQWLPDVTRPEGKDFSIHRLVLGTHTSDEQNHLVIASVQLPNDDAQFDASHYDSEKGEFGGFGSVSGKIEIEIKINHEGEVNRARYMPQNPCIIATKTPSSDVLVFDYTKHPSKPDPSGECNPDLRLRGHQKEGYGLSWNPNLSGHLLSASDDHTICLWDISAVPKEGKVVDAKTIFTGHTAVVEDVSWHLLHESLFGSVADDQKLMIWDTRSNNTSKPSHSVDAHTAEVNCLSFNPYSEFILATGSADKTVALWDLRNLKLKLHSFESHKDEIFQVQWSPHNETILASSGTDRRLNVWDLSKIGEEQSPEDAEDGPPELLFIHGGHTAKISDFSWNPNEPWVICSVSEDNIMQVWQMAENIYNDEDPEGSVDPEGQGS
EXPERIMENTAL_PROTOCOL: Isothermal titration calorimetry (ITC) of MTA1 peptides binding to RbAp48
CONDITION_INFO: MicroCal iTC200, 25 °C, 20 mM Tris, pH 7.5, 150 mM NaCl, MTA1 peptide (250 μM) titrated into RbAp48 (25 μM, 200 μl), 20 injections of 2 μl, single-site 1:1 fit, representative measurement, standard error from single curve fit, each titration in duplicate, read-out: dissociation constant (KD)
ENDPOINT_LABEL: Kd (nM)
Please respond with the number in nM and leave the unit unwritten.

What Kd value was documented for this substance, Ac-KLLSSSETKRAARRPYKPIALRQSQA-NH2 [MTA1-(670–695)] ?
50
